test: Binary supramolecular self-assembly systems of polymer and target: guest concentration over incubation time (Comparative Example 2); format: physicochemical; conditions: binary system with 0.5% polymer 107; incubation 3 h
Label condition not met if Concentration of the target in the solution measured after different incubation time falls below 40 µg/mL; label condition met in every other case.

Answered examples (4):
{"compound": "CC(=O)c1c(C)c2cnc(Nc3ccc(N4CCNCC4)cn3)nc2n(C2CCCC2)c1=O", "class-assignment": "condition not met"}
{"compound": "CCCNS(=O)(=O)Nc1ncnc(OCCOc2ncc(Br)cn2)c1-c1ccc(Br)cc1", "class-assignment": "condition met"}
{"compound": "CCOC(=O)C1=C(C)NC(C)=C(C(=O)OC)C1c1cccc(Cl)c1Cl (centres unmarked)", "class-assignment": "condition not met"}
{"compound": "CNC(=O)c1ccc(N2C(=S)N(c3ccc(C#N)c(C(F)(F)F)c3)C(=O)C2(C)C)cc1F [Enzalutamide]", "class-assignment": "condition met"}

Evaluate COC1=CC(=O)C[C@@H](C)[C@]12Oc1c(Cl)c(OC)cc(OC)c1C2=O : Concentration of the target in the solution measured after different incubation time at minimum 40 µg/mL?
condition met

Determine whether this compound has Concentration of the target in the solution measured after different incubation time no lower than 40 µg/mL: CCCCC1OC(=O)c2ccccc21 (centres unmarked) [Butylphthalide]
condition met

Could you please find out whether CC#CC(=O)N1CCC[C@H]1c1nc(-c2ccc(C(=O)Nc3ccccn3)cc2)c2c(N)nccn12 has Concentration of the target in the solution measured after different incubation time that meets 40 µg/mL or exceeds it?
condition met

Form field: Concentration of the target in the solution measured after different incubation time at least 40 µg/mL? Entry: COc1cc(/C=C/C(=O)CC(=O)/C=C/c2ccc(O)c(OC)c2)ccc1O
condition not met

====

test: Binary supramolecular self-assembly systems of polymer and target: guest concentration over incubation time (Comparative Example 2); assay type: physicochemical; conditions: binary system with 0.5% polymer 101; incubation 0.5 h
So basically every entry gets a class from its Concentration of the target in the solution measured after different incubation time, ranges being range A: < 100 µg/mL; range B: ≥ 100 µg/mL and < 300 µg/mL; range C: ≥ 300 µg/mL

{"compound": "CCCSc1nc(N[C@@H]2C[C@H]2c2ccc(F)c(F)c2)c2nnn([C@@H]3C[C@H](OCCO)[C@@H](O)[C@H]3O)c2n1", "class-assignment": "range B"}
{"compound": "C=CC(=O)N1CCC[C@@H](n2nc(-c3ccc(Oc4ccccc4)cc3)c3c(N)ncnc32)C1", "class-assignment": "range A"}

GET /class?item= CC#CC(=O)N1CCC[C@H]1c1nc(-c2ccc(C(=O)Nc3ccccn3)cc2)c2c(N)nccn12
range B

# bin lookup: classify CNC(=O)c1cc(Oc2ccc(NC(=O)Nc3ccc(Cl)c(C(F)(F)F)c3)cc2)ccn1 by its Concentration of the target in the solution measured after different incubation time
range C

# classify by Concentration of the target in the solution measured after different incubation time band: C=C(C)[C@@H]1CCC(C)=C[C@H]1c1c(O)cc(CCCCC)cc1O
range B

Hi, small favor: classify COC(=O)[C@H](c1ccccc1Cl)N1CCc2sccc2C1 by its Concentration of the target in the solution measured after different incubation time when you get a moment.
range C

====

assay: Binary supramolecular self-assembly systems of polymer and target: guest concentration over incubation time (Comparative Example 2); assay type: physicochemical; details: binary system with 0.5% polymer 110; incubation 3 h
What Concentration of the target in the solution measured after different incubation time was measured for each of the following?
Answers are plain numbers, in µg/mL.

Worked cases, Concentration of the target in the solution measured after different incubation time given:
{"compound": "O=C(O)[C@H]1O[C@@H](Oc2cc3oc(-c4ccc(O)cc4)cc(=O)c3c(O)c2O)[C@H](O)[C@@H](O)[C@@H]1O [Scutellarin, scutellarin]", "value-unit": "µg/mL", "recorded-value": 87.3}
{"compound": "C=C(C)[C@@H]1CCC(C)=C[C@H]1c1c(O)cc(CCCCC)cc1O [Cannabidiol]", "value-unit": "µg/mL", "recorded-value": 8.6}

Alright, here's another compound for you.
Hello, please tell me recorded Concentration of the target in the solution measured after different incubation time for this one: CC1(C)CCC(CN2CCN(c3ccc(C(=O)NS(=O)(=O)c4ccc(NCC5CCOCC5)c([N+](=O)[O-])c4)c(Oc4cnc5[nH]ccc5c4)c3)CC2)=C(c2ccc(Cl)cc2)C1 [Venetoclax, venetoclax]
534.6
